System: PHOX2B
test_summary: 3' UTR reporter interaction score (median-centred robust z-score of log2 firefly/Renilla activity); higher = less repression of the 3' UTR reporter
condition_summary: HEK293T; 48 h
Output fulfilled for 3' UTR reporter interaction score not less than 0.4; output not fulfilled otherwise.

sequence_string: UCACAGUGAACCGGUCUCUUUC
target_entity: PHOX2B
label: not fulfilled
//
sequence_string: UGGUUGACCAUAGAACAUGCGC
target_entity: PHOX2B
label: fulfilled
//
sequence_string: UCCGAGCCUGGGUCUCCCUCU
target_entity: PHOX2B
label: fulfilled
//
sequence_string: AGUAUGUUCUUCCAGGACAGAAC
target_entity: PHOX2B
label: not fulfilled
//
sequence_string: CAAAAACCACAGUUUCUUUUGC
target_entity: PHOX2B
label: fulfilled
//
sequence_string: AGGAAUGUUCCUUCUUUGCC
target_entity: PHOX2B
label: fulfilled
//
sequence_string: ACUUCACCUGGUCCACUAGCCGU
target_entity: PHOX2B
label: not fulfilled
//
sequence_string: UAGCAGCACAUCAUGGUUUACA
target_entity: PHOX2B
label: fulfilled
